assay.details: Assessment of solubility (McIlvaine buffers, 24 h shake, UPLC-UV)
Assay type: physicochemical
run.parameters: pH 2.2, aqueous buffer, kinetic from dmso stock
Decide by solubility at 24 h: equal to or exceeding 100 µg/mL means true (1), less means false (0).

# compound, class.name
measured = [
    ("Cc1cccc(-c2cccc(-n3ncc(C(=O)O)c3OC(C)C)n2)c1OCc1ccc2c(c1)CCN([C@H]1CCOC1)C2", "false (0)"),
    ("CCOc1c(C(=O)O)cnn1-c1cccc(-c2cccc(C)c2OCc2cc3c(c(C(F)(F)F)c2)CN(C2CCOCC2)CC3)n1", "false (0)"),
    ("COc1c(C(=O)O)cnn1-c1cccc(-c2cccc(C)c2OCc2ccc3c(c2)CN(C2COC2)C3)n1", "true (1)"),
    ("CCOc1c(C(=O)O)cnn1-c1cccc(-c2cccc(C)c2OCc2ccc3c(c2)CCN(C2CCOC(C)(C)C2)C3)n1 (stereo not shown)", "false (0)"),
    ("COc1c(C(=O)O)cnn1-c1cccc(-c2cccc(C)c2OCc2ccc3c(c2)C(C)(C)CN(C2COC2)C3)n1", "false (0)"),
]

* * *

assay.details: human liver microsome (HLM) metabolic stability assay
Type: in vitro ADME
run.parameters: human liver microsomes; % hepatic blood flow calculated from t1/2
# reported HLM (% Qh); entries follow

# compound, HLM (% Qh)
records = [
    ("COc1c(C(=O)O)cnn1-c1cccc(-c2cccc(C)c2OCc2ccc3c(c2C)CCN([C@@H]2CCOC2)C3)n1 [Compound 106]", "<24 % Qh"),
    ("COc1c(C(=O)O)cnn1-c1cccc(-c2cccc(C)c2OCc2ccc3c(c2)CCN(CC(F)(F)F)C3)n1 [Compound 11]", "47 % Qh"),
    ("CCOc1c(C(=O)O)cnn1-c1cccc(-c2cccc(C)c2OCc2ccc3c(c2OC)CCN(C2COC2)C3)n1 [Compound 221]", "<24 % Qh"),
    ("CCOc1c(C(=O)O)cnn1-c1cccc(-c2cccc(C)c2OCc2ccc3c(c2)CCN(CC2CCCO2)C3)n1 (stereo not shown) [Compound 101]", "<24 % Qh"),
]

* * *

assay.details: Assessment of solubility (McIlvaine buffers, 24 h shake, UPLC-UV)
Format: physicochemical
run.parameters: pH 6.8, aqueous buffer, kinetic from dmso stock
Description: Solubility is measured by the following method. 100 uL, 10 mM DMSO stock solution of each compound is prepared in a 96 well plate format. The experiment is done in single determination at 3 pH values (2.2, 4.5 and 6.8). For each pH and one reference, 40 uL of each compound is needed. McIlvaine pH 2.2: To 2.076 g citric acid monohydrate and 0.043 g Na2HPO4×2H2O add 100 ml deionized water […] The samples are measured with UPLC-UV using the chromatographic method described below. […]
readout.kind: solubility at 24 h

# entry.smiles, reported
records = [
    ("COc1c(C(=O)O)cnn1-c1cccc(-c2cccc(C)c2OCc2ccc3c(c2C)CCN([C@@H]2CCCOC2)C3)n1", "120 µg/mL"),
    ("COc1c(C(=O)O)cnn1-c1cccc(-c2cccc(C)c2OCc2ccc3c(c2C)CCN(C[C@H]2CCCO2)CC3)n1", "73 µg/mL"),
    ("CCCOc1c(C(=O)O)cnn1-c1cccc(-c2cccc(C)c2OCc2ccc3c(c2C)CCN(C2CCOCC2)C3)n1", "100 µg/mL"),
    ("COc1c(C(=O)O)cnn1-c1cccc(-c2cccc(C)c2OCc2ccc3c(c2Cl)CCN(C2CCC2)C3)n1", "68 µg/mL"),
    ("CCOc1c(C(=O)O)cnn1-c1cccc(-c2cccc(C)c2OCc2ccc3c(c2C)CCN(C[C@@H]2COCCO2)CC3)n1", "78 µg/mL"),
    ("CCOc1c(C(=O)O)cnn1-c1cccc(-c2cccc(C)c2OCc2ccc3c(c2C)CCN(C[C@H]2CCCO2)CC3)n1", "86 µg/mL"),
    ("COc1c(C(=O)O)cnn1-c1cccc(-c2cccc(C)c2OCc2cc(F)c3c(c2)CCN([C@@H]2CCOC2)C3)n1", "81 µg/mL"),
]
